# TESTED_SYSTEM: Human recombinant MMP-2 (Homo sapiens, UniProt P08253)
# Construct: made in house; host or cells: MMP-2-transfected p2AHT2 cells
# Sequence (P08253 110-660): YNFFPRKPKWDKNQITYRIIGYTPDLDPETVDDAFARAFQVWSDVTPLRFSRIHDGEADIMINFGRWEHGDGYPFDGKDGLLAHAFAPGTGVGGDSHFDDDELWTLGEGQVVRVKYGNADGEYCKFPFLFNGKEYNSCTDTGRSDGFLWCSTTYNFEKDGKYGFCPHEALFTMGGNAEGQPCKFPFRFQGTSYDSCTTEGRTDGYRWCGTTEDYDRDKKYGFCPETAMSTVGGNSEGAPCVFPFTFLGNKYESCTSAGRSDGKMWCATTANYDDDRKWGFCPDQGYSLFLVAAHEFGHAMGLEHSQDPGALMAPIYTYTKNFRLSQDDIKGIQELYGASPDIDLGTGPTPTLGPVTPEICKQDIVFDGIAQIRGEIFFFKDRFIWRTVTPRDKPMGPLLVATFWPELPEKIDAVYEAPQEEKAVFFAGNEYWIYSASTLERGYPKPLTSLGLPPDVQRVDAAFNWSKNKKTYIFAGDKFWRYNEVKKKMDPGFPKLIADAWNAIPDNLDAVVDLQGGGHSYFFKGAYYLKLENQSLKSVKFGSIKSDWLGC
# EXPERIMENTAL_DETAILS: In vitro MMP inhibition, IC50 determination (fluorogenic substrate I)
# Format: biochemical
# CONDITION_SUMMARY: value outside parentheses (Ki in parenthesis)
VALUE_KIND: IC50

Solved cases below.
INSERT INTO assay_data (compound, observed) VALUES
  ('COc1ccc(C(=O)NCCNc2ccc(S(=O)(=O)C3(C(=O)NO)CCOCC3)cc2)cc1 [Example 339]', '1210 nM'),
  ('COc1ccc2cc(O)c(C(=O)NCCCOc3ccc(S(=O)(=O)C4(C(=O)NO)CCOCC4)cc3)cc2c1 [Example 377]', '1270 nM'),
  ('CCCCCc1ccc(-c2nnc(CCCOc3ccc(S(=O)(=O)C4(C(=O)NO)CCOCC4)cc3)o2)cc1 [Example 316]', '2840 nM');

Consider the following items and state reported IC50 for each.
1. O=C(NCCCOc1ccc(S(=O)(=O)C2(C(=O)NO)CCOCC2)cc1)c1ccc2ccccc2n1 [Example 389]
2. O=C(NCCCOc1ccc(S(=O)(=O)C2(C(=O)NO)CCOCC2)cc1)c1ccccn1 [Example 382]
3. COc1ccc(CCCOc2ccc(S(=O)(=O)C3(C(=O)NO)CCOCC3)cc2)cc1OC [Example 466]
4. CC(CCOc1ccc(S(=O)(=O)C2(C(=O)NO)CCOCC2)cc1)CC(C)(C)C (centres unmarked) [Example 469]
5. COc1ccc(C(=O)N2CCC(COc3ccc(S(=O)(=O)C4(C(=O)NO)CCOCC4)cc3)CC2)cc1 [Example 420]

Resp:
47 nM
59 nM
110 nM
145 nM
67 nM

* * *

Could you please report measured pIC50 for the items listed next?
# TESTED_SYSTEM: Human recombinant MMP-1 (Homo sapiens, UniProt P03956)
# Construct: made in house; host or cells: MMP-1-transfected HT-1080 cells (spent media)
# Sequence (P03956 100-469): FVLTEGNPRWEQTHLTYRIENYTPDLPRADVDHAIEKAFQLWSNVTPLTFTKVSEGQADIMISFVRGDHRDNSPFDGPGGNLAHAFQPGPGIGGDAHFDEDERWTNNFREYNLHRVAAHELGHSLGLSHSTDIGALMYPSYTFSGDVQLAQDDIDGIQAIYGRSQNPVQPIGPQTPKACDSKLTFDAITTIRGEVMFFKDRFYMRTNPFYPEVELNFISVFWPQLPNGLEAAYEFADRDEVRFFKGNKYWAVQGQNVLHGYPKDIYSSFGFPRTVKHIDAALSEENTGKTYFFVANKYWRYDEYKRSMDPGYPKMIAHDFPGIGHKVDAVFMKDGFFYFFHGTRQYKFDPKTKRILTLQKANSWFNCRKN
# EXPERIMENTAL_DETAILS: In vitro MMP inhibition, IC50 determination (fluorogenic substrate I)
# Type: biochemical
# CONDITION_SUMMARY: value outside parenthesis
pIC50: −log10 of the molar value.

Solved cases below.
INSERT INTO results (compound_smiles, observed) VALUES
  ('O=C(NO)C1(S(=O)(=O)c2ccc(OCCSc3nc4cc(Cl)ccc4s3)cc2)CCOCC1', '< 5.00'),
  ('COc1ccc(/C(C#N)=C/CCCOc2ccc(S(=O)(=O)C3(C(=O)NO)CCN(C4CC4)CC3)cc2)cc1', '< 5.00'),
  ('O=C(CCCOc1ccc(S(=O)(=O)C2(C(=O)NO)CCOCC2)cc1)NNC(=O)c1ccc(Cl)cc1', 6.40),
  ('O=C1N(CCCOc2ccc(S(=O)(=O)C3(C(=O)NO)CCOCC3)cc2)CCN1c1ccc(OC(F)(F)F)cc1', '< 5.00');

Consider the following items and state reported pIC50 for each.
1. CC(C)c1ccc(-c2nnc(CCCOc3ccc(S(=O)(=O)C4(C(=O)NO)CCOCC4)cc3)o2)cc1
2. CC(C)[C@H]1C(=O)N(CCCOc2ccc(S(=O)(=O)C3(C(=O)NO)CCOCC3)cc2)C(=O)N1c1ccccc1
3. COc1cc(OC)cc(-c2noc(CCCOc3ccc(S(=O)(=O)C4(C(=O)NO)CCOCC4)cc3)n2)c1

Resp:
5.44
< 5.00
< 5.00

* * *

# TESTED_SYSTEM: Human recombinant MMP-14 (Homo sapiens, UniProt P50281)
# Construct: The catalytic domain enzyme was expressed in E. coli inclusion bodies, solubilized in urea; made in house
# EXPERIMENTAL_DETAILS: In vitro MMP inhibition, IC50 determination (fluorogenic substrate I)
# Assay type: biochemical
# CONDITION_SUMMARY: value outside parentheses (Ki in parenthesis)
VALUE_KIND: IC50

Solved cases below.
INSERT INTO measurements (compound, tested_system, value_kind, observed) VALUES
  ('O=C(NCCCOc1ccc(S(=O)(=O)C2(C(=O)NO)CCOCC2)cc1)c1cccnc1', 'Human recombinant MMP-14 (Homo sapiens, UniProt P50281)', 'IC50', '> 10 µM'),
  ('Cc1oc(CCCOc2ccc(S(=O)(=O)C3(C(=O)NO)CCOCC3)cc2)nc1-c1ccccc1', 'Human recombinant MMP-14 (Homo sapiens, UniProt P50281)', 'IC50', '> 10 µM'),
  ('COc1ccc(C(=O)CCCCOc2ccc(S(=O)(=O)C3(C(=O)NO)CCOCC3)cc2)c(OC)c1', 'Human recombinant MMP-14 (Homo sapiens, UniProt P50281)', 'IC50', '> 10 µM');

As a next step, examine the compound that follows.
Req: State measured IC50 of the compound CCCC(=O)C(C)CCOc1ccc(S(=O)(=O)C2(C(=O)NO)CCOCC2)cc1 (stereo not shown) with Human recombinant MMP-14 (Homo sapiens, UniProt P50281).
Resp: > 10 µM

* * *

# TESTED_SYSTEM: Human recombinant MMP-1 (Homo sapiens, UniProt P03956)
# Construct: made in house; host or cells: MMP-1-transfected HT-1080 cells (spent media)
# EXPERIMENTAL_DETAILS: In vitro MMP inhibition, IC50 determination (fluorogenic substrate I)
# Format: biochemical
# CONDITION_SUMMARY: value outside parentheses
pIC50: −log10 of the molar value.
Could you please report measured pIC50 for the items listed next?

INSERT INTO assay_data (compound, tested_system, observed) VALUES
  ('COc1ccc(-c2nnc(CCCOc3ccc(S(=O)(=O)C4(C(=O)NO)CCOCC4)cc3)o2)cc1 [Example 501]', 'Human recombinant MMP-1 (Homo sapiens, UniProt P03956)', '< 5.00'),
  ('COc1ccc(C(=O)CCCOc2ccc(S(=O)(=O)C3(C(=O)NO)CCOCC3)cc2)cc1 [Example 491]', 'Human recombinant MMP-1 (Homo sapiens, UniProt P03956)', 5.14),
  ('O=C(NO)C1(S(=O)(=O)c2ccc(OCCOCC3CCCCO3)cc2)CCOCC1 (stereo not shown) [Example 661]', 'Human recombinant MMP-1 (Homo sapiens, UniProt P03956)', '< 5.00');

Consider the following items and state reported pIC50 for each.
1. O=C(NO)C1(S(=O)(=O)c2ccc(OCCCc3cccc(-c4cccs4)c3)cc2)CCOCC1 [Example 595]
2. O=C(NO)C1(S(=O)(=O)c2ccc(OCCCc3cccc(-c4ccsc4)c3)cc2)CCOCC1 [Example 632]

Resp:
1. < 5.00
2. < 5.00

Consider the following items and state reported pIC50 for each.
1. COc1ccc(C(=O)CCOc2ccc(S(=O)(=O)C3(C(=O)NO)CCOCC3)cc2)cc1 [Example 494]
2. COc1ccc(CC(=O)NCCOc2ccc(S(=O)(=O)C3(C(=O)NO)CCOCC3)cc2)cc1 [Example 616]
3. O=C(NO)C1(S(=O)(=O)c2ccc(OCCCc3cccc(-c4ccc5c(c4)OCO5)c3)cc2)CCOCC1 [Example 628]
4. O=C(NO)C1(S(=O)(=O)c2ccc(OCCCc3cc(-c4ccc(F)c(F)c4)cs3)cc2)CCOCC1 [Example 580]
5. CN(C(=O)CCCOc1ccc(S(=O)(=O)C2(C(=O)NO)CCOCC2)cc1)c1ccccc1 [Example 654]

Resp:
[5.82, 5.80, "< 5.00", "< 5.00", "< 5.00"]

* * *

# TESTED_SYSTEM: Human recombinant MMP-14 (Homo sapiens, UniProt P50281)
# Construct: The catalytic domain enzyme was expressed in E. coli inclusion bodies, solubilized in urea; made in house
# EXPERIMENTAL_DETAILS: In vitro MMP inhibition, Ki determination (fluorogenic substrate II)
# Type: biochemical
# CONDITION_SUMMARY: value in parentheses
VALUE_KIND: Ki (µM)
Numbers only, in µM.

Solved cases below.
INSERT INTO assay_data (compound_smiles, tested_system, observed) VALUES
  ('O=C(CCCOc1ccc(S(=O)(=O)C2(C(=O)NO)CCOCC2)cc1)Nc1cccc(I)c1', 'Human recombinant MMP-14 (Homo sapiens, UniProt P50281)', 1.36),
  ('N#Cc1ccc(-c2cccc(CCCOc3ccc(S(=O)(=O)C4(C(=O)NO)CCOCC4)cc3)c2)cc1', 'Human recombinant MMP-14 (Homo sapiens, UniProt P50281)', 7.58),
  ('O=C(NO)C1(S(=O)(=O)c2ccc(OCCCc3nc(-c4ccccc4)no3)cc2)CCOCC1', 'Human recombinant MMP-14 (Homo sapiens, UniProt P50281)', 6.63),
  ('O=C(NO)C1(S(=O)(=O)c2ccc(OCCCc3cccc(-n4ccnc4)c3)cc2)CCOCC1', 'Human recombinant MMP-14 (Homo sapiens, UniProt P50281)', 5.39),
  ('COCCN1CCC(C(=O)NO)(S(=O)(=O)c2ccc(OCCCc3cccc(-c4ccc(F)cc4F)c3)cc2)CC1', 'Human recombinant MMP-14 (Homo sapiens, UniProt P50281)', 9.27);

As a next step, examine the molecule that follows.
Req: Query Ki for O=C(NO)C1(S(=O)(=O)c2ccc(OCCCc3cncc(Br)c3)cc2)CCOCC1
Resp: 6.29
